system: OVCAR-8; test: NCI tumour cell line growth inhibition, 48 h
Calls of active or inactive are those of the source. No stated cut-off is given here; in the data, active = GI50 up to about 1.1 µM and inactive = higher.
Outcomes: active, inactive

Compound	Assigned label
OC(c1cc(-c2ccc(Cl)cc2)nc2ccccc12)C1CCCCN1 (configuration not stated)	inactive
CC(C)N(Cc1ccccc1)S(=O)(=O)c1nc(C(C)(C)C)n[nH]1	inactive
O=[PH](O)c1cccs1	inactive
O=c1onc2n1-c1ccc(Cl)cc1C(=S)N1CSCC21 (configuration not stated)	inactive
CNC(=O)c1cc(NC(=O)N(CCC#N)CCN(C(=O)N[C@@H](Cc2ccccc2)C(=O)N[C@@H](CC(C)C)C(=O)NC)c2ccccc2)ccc1OC	inactive
CCO/C([O-])=C(\C(=O)c1ccccc1)[n+]1c(C)sc2ccccc21	inactive
CCCCN(C)C(=O)C1=C(C)NC(C)=C(C(=O)N(C)CCCC)C1	inactive
Cc1ccc(S(=O)(=O)NNC(C[N+](=O)[O-])c2ccccc2)cc1 (configuration not stated)	inactive
CN(C)CCn1c(=O)c2ccc(NCCCN(C)CCCNc3ccc4c(=O)n(CCN(C)C)c(=O)n5c6ccc([N+](=O)[O-])cc6c(=O)c3c45)c3c(=O)c4cc([N+](=O)[O-])ccc4n(c1=O)c23	active
O=C1c2ccccc2NC(=S)[C@@H]2CCCN12	inactive
CCc1n[nH]c(=O)n1O	inactive
CC(Oc1ccc(OCC2CCCCC2)cc1)C(=O)NCc1ccco1 (configuration not stated)	inactive
CC1CN=C(N(Cc2ccc(F)cc2)C(=O)Nc2ccc(Cl)cc2)S1 (configuration not stated)	inactive
Cc1ccc2c(O)cc(-c3sc4ccccc4c3C)nc2n1	inactive
O=c1[nH]c(=O)n(C2OC(CO)C(O)C2O)cc1OCCCc1ccccc1 (configuration not stated)	inactive
Cc1ccc(S(=O)ON2CCC(C(=O)O)(c3ccccc3)CC2)cc1 (configuration not stated)	inactive
CC(=O)Oc1ccc(-c2nnc(-c3ccc(OC(C)=O)cc3)nn2)cc1	inactive
CCCCCCCCCCCCCCCCSS(C)(=O)=O	inactive
Cc1n[n+](CC(=O)c2ccccc2)c2sc(N)nn12	inactive
Nc1ccc(CCSSCCc2ccc(N)cc2)cc1	inactive
CCC/N=C(/NC(=O)c1ccc(Cl)cc1)SC	inactive
ClC(Cl)(Cl)C(N1CCN(c2ccccc2)CC1)N1CCN(c2ccccc2)CC1	inactive

----------
test system: OVCAR-3; test: NCI tumour cell line growth inhibition, 48 h
Active and inactive are the calls of the source. Rule as the data show it: active = GI50 up to about 1.1 µM and inactive = higher.
Outcome measure: GI50

Compound	Result
CCN(CC)Cc1nc2sc3c(c2c(=O)n1-c1ccccc1)CCCC3	17.2 µM (inactive)
CC(=O)Nc1ccc(S(=O)(=O)c2nnc(NC(C)=O)s2)cc1	> 100 µM (inactive)
O=C1CCC(c2ccc(Cl)cc2)=NN1c1nsc2ccccc12	17.7 µM (inactive)
COC(=O)/C=C(\C)CC(O)/C=C(\C)CCC=C(C)C (stereo not given)	22.7 µM (inactive)
CN(C)CC1CCC/C(=C\c2ccc(OC(=O)/C=C/c3ccc(Cl)cc3)cc2)C1=O (stereo not given)	4.97 µM (inactive)
O=C(CC(C(=O)c1cccs1)c1ccccc1)c1ccccc1O (stereo not given)	83 µM (inactive)
CN1CCN(C(=O)c2cn(Cc3cncn3Cc3ccc4c(c3)OCO4)cc2-c2cccc3ccccc23)CC1	25.5 µM (inactive)
CCOC(=O)C=C1CCC2(CC1)OCCO2	> 100 µM (inactive)
OC(c1cc(-c2ccc(Cl)cc2)nc2ccccc12)C1CCCCN1 (stereo not given)	2.07 µM (inactive)
Cc1ccc(NCCCN2CCN(CCCNc3ccc(C)c4sc5ccccc5c(=O)c34)CC2)c2c(=O)c3ccccc3sc12	> 100 µM (inactive)

----------
test system: RXF 393; experiment: NCI tumour cell line growth inhibition, 48 h
The source made the active and inactive calls. Cut-off read from the data, not from the text of the source: active = GI50 up to about 1.1 µM and inactive = higher.
Outcome measure: GI50

Molecule	Outcome measure	Result
N[C@H]1c2c(Br)sc(Br)c2C(=O)[C@H]1O	GI50	4.95 µM (inactive)
O=C1CNC(=O)N1 [HYDANTOIN]	GI50	> 1120 µM (inactive)
CC(C)CC1C(=O)OC(C)(C)OC1=O	GI50	> 100 µM (inactive)
C=CCSc1nc2c(N)ncnc2n1C1OC(CO)C(O)C1O (stereo unspecified)	GI50	> 100 µM (inactive)
COc1cc(C)c(/C=C/C(=O)N2C(=O)OC[C@@H]2c2ccccc2)c(C)c1	GI50	9.02 µM (inactive)
Cc1ncc(CO)c(/C=N/CCCCCC/N=C/c2c(CO)cnc(C)c2[O-])c1[O-].[Mg+2]	GI50	> 100 µM (inactive)

----------
system: Malme-3M; assay: NCI tumour cell line growth inhibition, 48 h
Activity calls are given as the source filed them. Cut-off read from the data, not from the text of the source: active = GI50 up to about 1.1 µM and inactive = higher.

Compound	GI50
CC(C)(Br)C(=O)C(Br)Br	2.01 µM (inactive)
ClC1(Cl)C2CCOC21n1cnc2ccccc21 (configuration not stated)	> 100 µM (inactive)
CCC1(C)C=Cc2c(cc(O)c3c(=O)c4ccccc4n(C)c23)O1 (configuration not stated)	> 10 µM (inactive)
COC(=O)C(=O)Cc1nc2ccccc2s1	> 100 µM (inactive)
CN(C)CCNc1nc2c(no[n+]2[O-])c2ccccc12.[O-][Cl+3]([O-])([O-])O	22.5 µM (inactive)
O=c1[nH]c(=O)n(C2OC(CO)C(O)C2O)cc1OCCCc1ccccc1 (configuration not stated)	> 100 µM (inactive)
C=CCSc1nc2c(N)ncnc2n1C1OC(CO)C(O)C1O (configuration not stated)	> 100 µM (inactive)
O=S1(=O)C[C@@H](O)[C@H](O)CS1	> 100 µM (inactive)
CC(=O)OC1C/C(C)=C/[C@H](O)CC(C)/C=C/[C@@]2(C)CCC(C(C)(C)O)C12 (some centres not stated)	> 100 µM (inactive)
N#Cc1c(C#N)c(-c2ccccc2)n(/N=C\c2ccccc2)c1N	29.9 µM (inactive)
CCOC(=O)C(=O)NNc1nc2c(s1)C(=O)c1ccccc1C2=O	1.95 µM (inactive)
Oc1ccc2ccccc2c1CCc1c(O)ccc2ccccc12	13.4 µM (inactive)

----------
system: U-251; assay: NCI tumour cell line growth inhibition, 48 h
The source made the active and inactive calls. Cut-off read from the data, not from the text of the source: active = GI50 up to about 1.1 µM and inactive = higher.
Outcome measure: GI50

Compound	Result
COc1ccc(Cc2nc3cc([N+](=O)[O-])ccc3n2C[C@@H]2CCCN3CCCCC23)cc1 (stereo partly drawn)	20.9 µM (inactive)
COc1cccc(OC)c1C(=O)OCc1ccccc1	> 100 µM (inactive)
COc1ccc(-c2nc(Sc3c([N+](=O)[O-])ncn3C)n[nH]2)cc1	2.25 µM (inactive)
COC(=O)C(=C\Sc1ccccc1)/C=C/C(=O)OC(C)(C)C	14.5 µM (inactive)
NC1CCCCC1.O=C(CP(=O)(O)O)NC(CC(=O)OCc1ccccc1)C(=O)OCc1ccccc1 (stereo not drawn)	> 100 µM (inactive)
COC(=O)C1=C(C)NC(C)=C(C(=O)OC)C1c1ccc(/[N+]([O-])=C/c2ccccc2)cc1	> 100 µM (inactive)
COc1cc(OC)c2c(=O)c3cccc(C)c3n(C)c2c1	84.3 µM (inactive)
Cc1cc(C)nc(NS(=O)(=O)c2ccc(NC(=O)COC(=O)c3cccc4c(=O)c5ccccc5[nH]c34)cc2)n1	20 µM (inactive)
N#Cc1c(-c2ccc([N+](=O)[O-])cc2)c2c([nH]c1=O)-c1ccccc1CCC2	52.5 µM (inactive)
COC(=O)/C=C(\S/C=C(/c1ccccc1)N1CCn2c(C(=O)c3ccccc3)c(C(=O)OC)c(C(=O)OC)c21)C(=O)OC	3.93 µM (inactive)
CNC(c1ccncc1)C(NC)c1ccncc1 (stereo not drawn)	> 100 µM (inactive)
N#CC1=C2SCCN2C(=O)C(C#N)C12CCCCC2 (stereo not drawn)	> 100 µM (inactive)
ClC1(Cl)C2CCOC21n1cnc2ccccc21 (stereo not drawn)	> 100 µM (inactive)
CCCC1C(C#N)(C#N)C(C#N)=C(N)C1(C)C(C)=O (stereo not drawn)	> 100 µM (inactive)
O=C1CCCCCCCCCCC1CN1CCCCC1 (stereo not drawn)	75.3 µM (inactive)
O=C(O)CCCOc1cc(-c2ccccc2F)nc2cc3c(cc12)OCO3	5.46 µM (inactive)
CCNc1nnc(CSc2nc(-c3ccccc3)c(-c3ccccc3)[nH]2)s1	13.7 µM (inactive)
O=[PH](O)c1cccs1	> 100 µM (inactive)
C/C(=N\O)C(CN(C)C)C(c1ccccc1)c1c(O)c2ccccc2oc1=O (stereo not drawn)	> 100 µM (inactive)
Cn1ccc(=NS(=O)(=O)c2ccccc2)cc1	> 100 µM (inactive)
O=c1[nH]cnc2cccc(Cl)c12	> 100 µM (inactive)
Cc1ccccc1C(=O)NC(O)(C(F)(F)F)C(F)(F)F	> 100 µM (inactive)
CN(C)CC1CCC/C(=C\c2ccc(OC(=O)/C=C/c3ccc(Cl)cc3)cc2)C1=O (stereo not drawn)	3.13 µM (inactive)

----------
system: Malme-3M; experiment: NCI tumour cell line growth inhibition, 48 h
The source made the active and inactive calls. Rule as the data show it: active = GI50 up to about 1.1 µM and inactive = higher. Where a SMILES comes first, the peptide text is derived from it. [ ]: non-standard residue; d: D form. The star is where a group is joined. NMeAc5c = CNC1(C(=O)O)CCCC1; Boc = CC(C)(C)OC(=O)*; OBn = c1ccc(CO*)cc1

Compound	GI50
CC1CC[C@@]2(OC1)OC1C[C@H]3[C@@H]4CC=C5CC(OC6OC(CO)C(OC7OC(CO)C(O)C(OC8OCC(O)C(O)C8O)C7OC7OC(CO)C(OC8OC(C)C(OC9OC(C)C(O)C(O)C9O)C(O)C8O)C(O)C7O)C(O)C6O)CCC5(C)[C@H]4CCC3(C)C1[C@@H]2C (stereo partly drawn)	10.6 µM (inactive)
COCCNC1CCC2(SCCS2)c2[nH]c3ccccc3c21 (stereo not drawn)	> 10 µM (inactive)
CN(C(=O)C(Cc1ccccc1)NC(=O)OC(C)(C)C)C1(C(=O)NC(Cc2ccccc2)C(=O)OCc2ccccc2)CCCC1 (stereo not drawn) (Boc-Phe-[NMeAc5c]-Phe-OBn; configuration not given here)	> 100 µM (inactive)
CCOC(=O)NC(=O)c1cn(CCN(CCO)C(=O)NCCCCCCNC(=O)N(CCO)CCn2cc(C(=O)NC(=O)OCC)c(=O)[nH]c2=O)c(=O)[nH]c1=O	> 100 µM (inactive)
COc1ccc(OCC(=N/NC(=O)c2ccncc2)/N=C/c2ccncc2)cc1	> 100 µM (inactive)
CN(C)C(=N)NC(=S)N(C)C	> 100 µM (inactive)
CCCCCCCCCCCCCCCCSS(C)(=O)=O	7.45 µM (inactive)
Cc1ccccc1C(=O)NC(O)(C(F)(F)F)C(F)(F)F	28.2 µM (inactive)
CCOC(=O)C1OC(C2(C)OC3(OC4(C=CC3O)OC(C(C)C(=O)C(C)C(O)C(C)CC(C)c3c(Cl)cc(C)c(O)c3C(=O)O)C(C)CC4C)C(C)C2OC)CC1O (stereo not drawn)	0.294 µM (active)
COc1ccc(Cc2nc3cc([N+](=O)[O-])ccc3n2C[C@@H]2CCCN3CCCCC23)cc1 (stereo partly drawn)	16.7 µM (inactive)
CN(C)[C@@H]1C(O)=C(C(=O)NCN2CCN(C(=N)NC(=N)N)CC2)C(=O)[C@@]2(O)C(O)=C3C(=O)c4c(O)cccc4[C@@](C)(O)[C@H]3C[C@@H]12	0.269 µM (active)
Cn1c2c(c3ccccc31)CCN1OCC=C[C@@H](C(=O)O)[C@@H]21	> 100 µM (inactive)
Cc1ccc2c(=O)c3ccccc3sc2c1	> 100 µM (inactive)
C#CCNC(=O)NC(CCCCNC(=O)OCc1ccccc1)C(=O)OCc1ccccc1 (stereo not drawn)	24.2 µM (inactive)
O=c1onc2n1-c1ccc(Cl)cc1C(=S)N1CSCC21 (stereo not drawn)	47.3 µM (inactive)
CC(Oc1ccc(OCC2CCCCC2)cc1)C(=O)NCc1ccco1 (stereo not drawn)	27 µM (inactive)
CC(CCCOC(c1ccccc1)(c1ccccc1)c1ccccc1)OC(=O)Nc1cc([N+](=O)[O-])cc([N+](=O)[O-])c1 (stereo not drawn)	27.6 µM (inactive)
Cc1ccsc1/C=N/NC1=NCCN1	> 100 µM (inactive)
